Assay: Pharmacokinetic test in Beagle dogs
Type: in vivo
Conditions: dog; male Beagle dogs, PO, 2.5 mg/kg, plasma
Experimental: The compounds were administered to male Beagle dogs by gavage (PO) to investigate the pharmacokinetic profile. Compound 1 of the present invention and HM95573 were administered via PO; the administration dosage was 2.5 mg/kg, and the solvent was a 20% aqueous solution of hydroxypropyl-β-cyclodextrin. […] The pharmacokinetic parameters were calculated using the WinNonlin 6.3 software and employing a non-compartmental model, and the results are shown in Table 7.
parameter: half-life (h)
Express it in h; write the number only.

The compound `Cc1ccc2c(Nc3cccc(Cl)c3F)nccc2c1NC(=O)c1cccc2c(N)ncnc12` showed half-life equal to 15.4

These measurements were taken from patent US20230312556A1.
